System: TK-10 renal
Experiment: NCI tumour cell line growth inhibition, 48 h
REPORTED PROPERTY: TGI

The following molecules have reported results that may help.
{"MOLECULE": "O=c1ccnc2ccc3n[nH][nH]c3c12", "REPORTED PROPERTY": "TGI", "RESULT": "> 100 µM"}
{"MOLECULE": "Cc1ccc2nc(NC(=O)/C(=N\\NC(=S)NN)C3C(=O)NC(=S)NC3=O)sc2c1", "REPORTED PROPERTY": "TGI", "RESULT": "> 100 µM"}
{"MOLECULE": "COC(=O)C1C=CCON2CCc3c(n(S(=O)(=O)c4ccccc4)c4ccccc34)C12 (stereo not given)", "REPORTED PROPERTY": "TGI", "RESULT": "> 100 µM"}
{"MOLECULE": "CC(C)CCCC(C)[C@H]1CC[C@H]2N=C(NCc3ccccc3)CCC[C@]12C (stereo not given in full)", "REPORTED PROPERTY": "TGI", "RESULT": "5.45 µM"}

Switching to the query record.
State the recorded TGI for this entry: Fc1ccc(Nc2nc3ccccc3c3occc23)cc1
6.67 µM

---

The following compounds are shown together with reported GI50 values.
Test system: HS 578T breast
Assay: NCI tumour cell line growth inhibition, 48 h

These solved cases illustrate the format of a correct answer.
{"SMILES INPUT": "C[CH2][Sn]([CH2]C)([O]C(=O)c1ccc(OC)c(OC)c1OC)[O]C(=O)c1ccc(OC)c(OC)c1OC", "GI50": "23.2 µM"}
{"SMILES INPUT": "CCN(Cc1ccc(F)cc1)c1ccc(CO)c(OC)c1", "GI50": "14.9 µM"}

Kindly consider the entry below.
What is its GI50 for HS 578T breast? Entry: Fc1ccc(Nc2nc3ccccc3c3occc23)cc1
14.3 µM

---

System: T-47D breast
Experiment: NCI tumour cell line growth inhibition, 48 h
Think of 20 µM as a floor: if TGI stands on it or above, it is Y; beneath it, N.

Would you please look over these solved cases?
{"COMPOUND": "CCn1ccc(NS(=O)(=O)c2ccc(N)cc2)nc1=O", "ASSAYED SYSTEM": "T-47D breast", "LABEL CLASS": "Y"}
{"COMPOUND": "O=Nc1c(O)cc(Nc2cccnc2)c2ccccc12", "ASSAYED SYSTEM": "T-47D breast", "LABEL CLASS": "Y"}

Is the recorded value of TGI equal to or greater than 20 µM for this compound? Cc1cc2nc(N3C(=O)/C(=C/c4ccc(N(C)C)cc4)N=C3c3ccccc3)sc2cc1C
Y

Item O=[N+]([O-])C(=C/c1cccs1)/C(=C\c1cccs1)[N+](=O)[O-] with TGI of 20 µM or above?
N

Is it the case that COc1cc2c[n+](C)c3c(c2cc1OC)Cc1cc2c(cc1-3)OCO2 has TGI reaching or exceeding 20 µM?
Y

Test whether the compound COc1ccc(/C=C/C(=O)c2ccc(OC(=O)/C=C/c3ccccc3)cc2)cc1 records TGI of 20 µM or higher.
Y

Can Cc1ccc(S(=O)(=O)N2CCc3ccc(O)c4c3C2Cc2ccc3c(c2-4)OCO3)cc1 (configuration not stated) be said to have TGI at or above 20 µM?
Y

Is reported TGI greater than or equal to 20 µM here: COC1CC(O[C@H]2CC[C@@]3(C)[C@@H](CC[C@]4(O)[C@@H]3CC[C@]3(C)[C@@H](C(C)=O)[C@H](OC(=O)CC(C)C)[C@@H](OC(=O)c5ccccc5)[C@@]34O)C2)OC(C)C1OC1CC(OC)C(OC2OC(C)C(O)C(OC)C2O)C(C)O1 (some centres not stated)
Y

Given C=CC1(C)OC2(CCN(C(=O)OCC)CC2)OC1C (configuration not stated) , state whether its TGI is at least 20 µM.
Y

Quick check: does COC1=CC(=O)C2=C(C[C@@]3(C)C(=C2)C(CO)=CC[C@H]3O)C1=O have TGI greater than or equal to 20 µM?
Y

Test whether the compound COCc1c(-c2ccc(NC(=O)Nc3cc(C(F)(F)F)ccc3F)c(F)c2)c2c(N)ncnn2c1CN1CCOCC1 records TGI of 20 µM or higher.
N

Dear colleague, could you confirm whether O=[N+]([O-])c1cccc(N=Nc2c(O)ccc3ccccc23)c1 has TGI at or above 20 µM?
Y

Is the recorded value of TGI equal to or greater than 20 µM for this compound? C[C@@H](Oc1cc(-n2cnc3ccc(OC[C@@H](O)CO)cc32)sc1C(N)=O)c1ccccc1Cl
Y

Could you tell me if the measured TGI of CN1CCN(Cc2ccc(NC(=O)c3cncc(C#Cc4cnc(N)c5cnccc45)c3)cc2C(F)(F)F)CC1 reaches 20 µM or more?
N

Determine whether measured TGI meets or exceeds 20 µM for COc1ccc(OC)c2c3c([nH]c12)C(=O)Nc1nc(N)nc(N)c1C3
Y

Hi, just wondering whether C=C1C(=O)O[C@H]2[C@H]1CC/C(COC(=O)NCCCCCCCCNC(=O)OC/C1=C/CC[C@@]3(C)O[C@H]3[C@H]3OC(=O)C(=C)[C@@H]3CC1)=C\CC[C@@]1(C)O[C@@H]21 shows TGI of 20 µM or higher.
N

Could you please find out whether FC(F)(F)c1cc(Nc2ccc3cc(OCCCN4CCOCC4)ccc3n2)ccc1Cl has TGI that meets 20 µM or exceeds it?
N

Hello, I need to know if COc1ccc2c(c1OC(C)=O)C1=CC(=O)CCC13CCNC3C2 (configuration not stated) has measured TGI not below 20 µM. Thanks!
Y

Form field: TGI at least 20 µM? Entry: Cn1c(=O)c(Cl)c(N=[N+]=[N-])c2ccccc21
Y

// inclusive: TGI at least 20 µM? input: O=C1CC2SC(COCc3ccccc3)(CCN2Cc2ccccc2)C1 (configuration not stated)
Y

Decide: TGI of O=C1CCCc2ccc3c(c21)CC1(Cc2ccccc2C1)C3 >= 20 µM?
Y

Could you please find out whether COC(=O)C1=C(CCC[C@H](C)O[Si](C)(C)C(C)(C)C)NC(=O)N2[C@@H](CCO)CC[C@H]12 has TGI that meets 20 µM or exceeds it?
Y

Data origin, for the record: PubChem BioAssay (NCI)
